Entries annotated with measured growth
# Tested on: E. coli TESEC Alr+ wild-type control
# protocol: growth (OD600 after 10 h); higher = more growth (less inhibition)
# condition info: compound 0.1 mM; raw OD600 reference: median of DMSO wells 0.49, cell-free background 0.052
Structures can show the parent of a compound that is named as a salt.
I only need the number, thanks.

Some compounds with known growth results, for comparison:
> print(dat)
                                   compound  assay.value
1  CCOC(=O)[C@H](CCc1ccccc1)N[C@@H](C)C(=O)N1[C@H](C(=O)O)C[C@@H]2CCC[C@@H]21        0.586
2  CC(=O)c1ccc2c(c1)N(CCCN(C)C)c1ccccc1S2 [Acetopromazine maleate salt]         0.47

Recorded result, CC(=O)OC(C)C[N+](C)(C)C (stereo unspecified) [Methacholine chloride] , growth: 0.466

Recorded result, CCC(=O)O[C@]1(C(=O)CCl)[C@@H](C)C[C@H]2[C@@H]3CCC4=CC(=O)C=C[C@]4(C)[C@@]3(F)[C@@H](O)C[C@@]21C [Clobetasol propionate] , growth: 0.326

Recorded result, Clc1ccc(C(Cn2ccnc2)OCc2csc3c(Cl)cccc23)c(Cl)c1 (stereo unspecified) [Sertaconazole nitrate] , growth: 0.129

Recorded result, CC(C)(C)C(=O)OCOC(=O)[C@@H]1N2C(=O)[C@@H](/N=C/N3CCCCCC3)[C@H]2SC1(C)C [Pivmecillinam hydrochloride] , growth: 0.509

Recorded result, CN(C)CCC(c1ccc(Cl)cc1)c1ccccn1 (stereo unspecified) [Chlorpheniramine maleate] , growth: 0.466

* * *

Entries annotated with measured growth
# System: E. coli TESEC Alr+ wild-type control
# protocol: growth (OD600 after 10 h); higher = more growth (less inhibition)
# condition info: compound 0.1 mM; raw OD600 reference: median of DMSO wells 0.241, cell-free background 0.041
I only need the number, thanks.

Some molecules with known growth results, for comparison:
molecule	growth
OC[C@H]1O[C@@H](Oc2ccc(O)cc2)[C@H](O)[C@@H](O)[C@@H]1O	0.245
CC=C(C)C(=O)OC1C(OC(C)=O)C2(CO)C(O)CC3(C)C(=CCC4C5(C)CCC(OC6OC(C(=O)O)C(OC7OC(CO)C(O)C(O)C7O)C(O)C6OC6OC(CO)C(O)C(O)C6O)C(C)(CO)C5CCC43C)C2CC1(C)C (stereo not given)	0.289

Recorded result, `C[C@]12CC[C@H]3C(=CCc4cc(O)ccc43)[C@@H]1CCC2=O` , growth: 0.126

* * *

Entries annotated with measured growth
# Test system: E. coli TESEC Mtb DapB
# protocol: growth (OD600 after 10 h); higher = more growth (less inhibition)
# condition info: arabinose induction (level): Low; compound 0.1 mM; raw OD600 reference: median of DMSO wells 0.227, cell-free background 0.041
Structures can show the parent of a compound that is named as a salt.
I only need the number, thanks.

Some compounds with known growth results, for comparison:
compound	growth
COc1ccc2[nH]c([S+]([O-])Cc3ncc(C)c(OC)c3C)nc2n1 (configuration not stated) [Tenatoprazole]	0.201
Cn1nnc2c(C(N)=O)ncn2c1=O [Temozolomide]	0.211
CN1CCN(C(c2ccccc2)c2ccc(Cl)cc2)CC1 (configuration not stated) [Chlorcyclizine hydrochloride]	0.261

Readout growth for CC(C)NC[C@H](O)COc1cccc2ccccc12 [(S)-propranolol hydrochloride] , test system E. coli TESEC Mtb DapB, was 0.231

Readout growth for C#C[C@]1(OC(C)=O)CC[C@H]2[C@@H]3CCC4=CC(=NO)CC[C@@H]4[C@H]3CC[C@@]21CC (mixture of isomers) [Norgestimate] , test system E. coli TESEC Mtb DapB, was 0.0826

Readout growth for C[C@H]1O[C@@H](O[C@H]2[C@@H](O)C[C@H](O[C@H]3[C@@H](O)C[C@H](O[C@H]4CC[C@@]5(C)[C@H](CC[C@@H]6[C@@H]5C[C@@H](O)[C@]5(C)[C@@H](C7=CC(=O)OC7)CC[C@]65O)C4)O[C@@H]3C)O[C@@H]2C)C[C@H](O)[C@@H]1O [Digoxin] , test system E. coli TESEC Mtb DapB, was 0.236

Readout growth for C[C@@H](c1ncncc1F)[C@](O)(Cn1cncn1)c1ccc(F)cc1F [Voriconazole] , test system E. coli TESEC Mtb DapB, was 0.201
